Here, each record is paired with measured melting point data.

Please review the entries below; each comes with its answer.
{"columns": ["compound", "recorded_measurement"],
 "data": [
  ["NC(=O)c1cn(C(CO)c2ccccc2)cn1 (stereo not shown)", "147 to 149 °C"],
  ["COC(=O)Cc1cccc(CCC(CO)n2cnc(C(N)=O)c2)c1 (stereo not shown)", "138.5 to 141 °C"],
  ["NC(=O)c1cn(C(CO)COc2ccccc2)cn1 (stereo not shown)", "147.5 to 149.5 °C"],
  ["NC(=O)c1cn(C(CO)CCc2cccc(C(F)(F)F)c2)cn1 (stereo not shown)", "103 to 106 °C"],
  ["NC(=O)c1cn(C(CO)CCc2ccccc2)cn1 (stereo not shown) [Example 1]", "127 to 129.5 °C"],
  ["Cc1ccc(CCC(CO)n2cnc(C(N)=O)c2)cc1 (stereo not shown)", "138 to 141 °C"],
  ["CCOC(=O)c1cccc(CCC(CO)n2cnc(C(N)=O)c2)c1 (stereo not shown)", "92 to 95 °C"],
  ["Nc1nc(-c2cn([C@H](CO)CCc3ccccc3)cn2)n[nH]1", "80 °C (dec.)"]
]}

[ask] Form field: reported melting point of N#Cc1cn(C(CO)CCc2ccccc2)cn1 (stereo not shown)
[reply] 111 to 115 °C

[ask] Similarly, CCCC(CO)n1cnc(C(N)=O)c1 (stereo not shown) ?
[reply] 160 °C

[ask] Similarly, Cc1ccccc1CC[C@H]([C@H](C)O)n1cnc(C(N)=O)c1 ?
[reply] 60 to 62 °C

[ask] Similarly, CCCCCCC(CO)n1cnc(C(N)=O)c1 (stereo not shown) ?
[reply] 97.5 to 100.5 °C

[ask] Similarly, C[C@H](O)[C@@H](CCc1cccc(Cl)c1Cl)n1cnc(C(N)=O)c1 ?
[reply] 70 to 75 °C
